From: the supplement of paper PMC10567573

B1: SPSB1 (parent)
chain: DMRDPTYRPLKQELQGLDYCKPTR

- Variants of: B1
- Assay remarks: protein stability index of a GFP-peptide fusion (GPS, HEK-293T) (PSI 1-6); higher = more stable;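 further: lentivirally expressed fusions sorted by FACS into six bins by GFP to DsRed ratio, PSI derived from sequencing read proportions per bin multiplied by bin number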
- Cond: c terminus: a fixed tail appended
Output true for protein stability index not less than 3; output false otherwise.

Please review the entries below; each comes with its answer.
D4N = false
P5R = false
T23F = false
D1E = true
L10V = true

Ask: Does Y7T have a reported protein stability index of at least 3?
Reply: true

Ask: Item: K21T
Reply: false

Ask: Item: G16H
Reply: true

Ask: Item: L14D
Reply: true

Ask: Item: D18A
Reply: true

Ask: Item: T23M
Reply: false
